biological target: Ephrin type-A receptor 2 (Homo sapiens, UniProt P29317)
Sequence (P29317 whole entry): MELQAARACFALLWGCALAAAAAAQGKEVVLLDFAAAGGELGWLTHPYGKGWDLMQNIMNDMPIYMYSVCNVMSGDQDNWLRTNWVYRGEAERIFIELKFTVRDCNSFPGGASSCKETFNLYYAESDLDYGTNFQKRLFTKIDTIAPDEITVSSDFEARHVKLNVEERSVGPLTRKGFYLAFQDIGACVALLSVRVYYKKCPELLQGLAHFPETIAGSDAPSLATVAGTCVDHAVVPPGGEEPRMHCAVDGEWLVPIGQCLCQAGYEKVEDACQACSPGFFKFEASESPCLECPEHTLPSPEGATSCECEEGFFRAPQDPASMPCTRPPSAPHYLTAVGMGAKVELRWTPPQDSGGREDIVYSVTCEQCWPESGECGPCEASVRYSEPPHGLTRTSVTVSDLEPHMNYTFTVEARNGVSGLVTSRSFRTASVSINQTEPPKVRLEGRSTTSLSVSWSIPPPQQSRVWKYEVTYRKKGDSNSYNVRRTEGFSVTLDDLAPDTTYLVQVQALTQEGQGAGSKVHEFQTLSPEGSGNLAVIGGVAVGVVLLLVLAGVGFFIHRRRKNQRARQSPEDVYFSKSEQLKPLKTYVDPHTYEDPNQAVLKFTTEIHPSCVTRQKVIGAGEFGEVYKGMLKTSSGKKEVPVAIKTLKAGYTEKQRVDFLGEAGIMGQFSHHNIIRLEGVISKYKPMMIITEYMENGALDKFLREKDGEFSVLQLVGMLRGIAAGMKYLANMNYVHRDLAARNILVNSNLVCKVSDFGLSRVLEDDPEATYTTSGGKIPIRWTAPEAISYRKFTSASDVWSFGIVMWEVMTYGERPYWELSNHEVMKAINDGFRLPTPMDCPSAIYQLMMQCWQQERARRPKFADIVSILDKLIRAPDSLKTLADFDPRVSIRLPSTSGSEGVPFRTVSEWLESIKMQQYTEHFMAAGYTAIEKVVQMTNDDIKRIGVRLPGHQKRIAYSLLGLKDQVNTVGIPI
The following molecules are shown together with reported deltaTm values.
Give just the number in K; leave the unit off.

Field: example entries. Status: answers known.
>>> numeric_readout("COc1c(F)ccc(-c2cnc3nc2NCCCNS(=O)(=O)c2cccc(c2)N3)c1F")
8.8
>>> numeric_readout("COc1cc(-c2cnc3nc2NCCCNS(=O)(=O)c2cccc(c2)N3)cc(OC)c1OC")
6

Reported deltaTm, molecule "COc1cc(-c2cnc3nc2NCCCNS(=O)(=O)c2cccc(c2)N3)cc(C(F)(F)F)c1" : ____
1.8

// same read-out, input: "CSc1cc(-c2cnc3nc2NCCCNS(=O)(=O)c2cccc(c2)N3)ccc1F"
6.9

// same read-out, input: "O=S1(=O)NCCCNc2nc(ncc2-c2ccc(F)c(O)c2)Nc2cccc1c2"
7.8

// same read-out, input: "COC(=O)COc1ccc2cc1S(=O)(=O)NCCCNc1nc(ncc1-c1ccc(F)c(OC)c1)N2"
2.4

// same read-out, input: "COc1cc(-c2cnc3nc2NCCCNS(=O)(=O)c2cccc(c2)N3)c(F)cc1Cl"
9.8

----------
The following compounds are shown together with reported deltaTm values.
biological target: Ephrin type-A receptor 5 (Homo sapiens) (UniProt P54756)
Sequence (P54756 whole entry): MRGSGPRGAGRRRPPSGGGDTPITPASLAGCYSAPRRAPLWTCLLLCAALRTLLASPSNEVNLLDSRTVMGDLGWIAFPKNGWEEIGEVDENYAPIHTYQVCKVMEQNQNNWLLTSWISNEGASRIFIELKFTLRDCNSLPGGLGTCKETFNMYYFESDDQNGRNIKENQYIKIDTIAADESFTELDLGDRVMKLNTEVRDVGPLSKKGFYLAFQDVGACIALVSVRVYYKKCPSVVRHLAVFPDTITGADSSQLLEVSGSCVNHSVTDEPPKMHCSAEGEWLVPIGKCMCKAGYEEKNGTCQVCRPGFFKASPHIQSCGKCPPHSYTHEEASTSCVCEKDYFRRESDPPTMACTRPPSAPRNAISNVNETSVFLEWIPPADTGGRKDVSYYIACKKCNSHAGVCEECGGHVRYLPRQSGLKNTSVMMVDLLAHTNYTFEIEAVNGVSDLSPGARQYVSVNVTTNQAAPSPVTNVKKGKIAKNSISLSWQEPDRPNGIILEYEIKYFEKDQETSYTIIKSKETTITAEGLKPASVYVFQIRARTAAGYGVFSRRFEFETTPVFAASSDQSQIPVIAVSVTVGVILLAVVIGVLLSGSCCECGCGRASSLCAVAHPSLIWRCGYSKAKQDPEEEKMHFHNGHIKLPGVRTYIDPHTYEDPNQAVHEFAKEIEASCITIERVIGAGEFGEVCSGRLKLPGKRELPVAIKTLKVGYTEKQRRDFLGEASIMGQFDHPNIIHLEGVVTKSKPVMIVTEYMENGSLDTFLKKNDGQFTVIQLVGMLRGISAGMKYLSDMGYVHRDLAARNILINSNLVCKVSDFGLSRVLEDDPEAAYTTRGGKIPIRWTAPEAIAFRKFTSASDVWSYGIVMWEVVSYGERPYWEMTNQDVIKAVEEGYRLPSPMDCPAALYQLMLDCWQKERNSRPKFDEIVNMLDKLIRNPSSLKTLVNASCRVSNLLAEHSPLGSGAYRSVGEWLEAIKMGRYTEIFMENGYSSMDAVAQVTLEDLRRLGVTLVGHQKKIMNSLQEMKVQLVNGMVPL
Entry format: amount then unit.

>>> result("COc1cc(-c2cnc3nc2NCCCNS(=O)(=O)c2cc(ccc2-c2ccc(O)cc2)N3)ccc1F")
"6.7 K"

Hello, I am looking for reported deltaTm with Ephrin type-A receptor 5 (Homo sapiens) (UniProt P54756) for "COc1cc(-c2cnc3nc2NCCCNS(=O)(=O)c2cccc(c2)N3)c(F)cc1F" . Could you help?
5 K

// same read-out, input: "Cc1cc(Cl)c(Cl)cc1-c1cnc2nc1NCCCNS(=O)(=O)c1cccc(c1)N2"
3.5 K

// same read-out, input: "COCCOc1ccc2cc1S(=O)(=O)NCCCNc1nc(ncc1-c1ccc(F)c(OC)c1)N2"
5.4 K

// same read-out, input: "O=S1(=O)NCCCNc2nc(ncc2-c2ccc(Cl)c(Cl)c2)Nc2cccc1c2"
3.4 K

// same read-out, input: "COc1cc(-c2cnc3nc2NCCCNS(=O)(=O)c2cc(ccc2O)N3)ccc1F"
4.7 K

// same read-out, input: "COc1cc(-c2cnc3nc2NCCCNS(=O)(=O)c2cc(ccc2Cl)N3)ccc1F"
5 K

// same read-out, input: "COc1ccc(-c2cnc3nc2NCCCNS(=O)(=O)c2cccc(c2)N3)cc1OC"
2.1 K

----------
target: Ephrin type-B receptor 1 (Homo sapiens); assay: Induction of stabilization of recombinant EPHB1 (unknown origin) assessed as change in melting temperature by differential scanning fluorimetry assay
Readout kind: deltaTm (K)
Give just the number in K; leave the unit off.

Field: example entries. Status: answers known.
>>> numeric_readout("COC(=O)c1cc(-c2cnc3nc2NCCCNS(=O)(=O)c2cccc(c2)N3)ccc1F")
1.3
>>> numeric_readout("O=S1(=O)NCCCNc2nc(ncc2-c2ccc(Cl)c(Cl)c2)Nc2cccc1c2")
2.2
>>> numeric_readout("COc1cc(-c2cnc3nc2NCCCNS(=O)(=O)c2cccc(c2)N3)c(F)cc1F")
3.3
>>> numeric_readout("O=S1(=O)NCCCNc2nc(ncc2-c2cc(Cl)c(F)cc2F)Nc2cccc1c2")
3.3
>>> numeric_readout("O=S1(=O)NCCCNc2nc(ncc2-c2ccc(F)c(O)c2)Nc2cccc1c2")
4

Reported deltaTm, compound "O=S1(=O)NCCCNc2nc(ncc2-c2ccc(F)c(Cl)c2)Nc2cccc1c2" : ____
5.3

// same read-out, input: "CSc1cc(-c2cnc3nc2NCCCNS(=O)(=O)c2cccc(c2)N3)ccc1F"
3

// same read-out, input: "COc1cc(-c2cnc3nc2NCCCNS(=O)(=O)c2cc(ccc2O)N3)ccc1F"
3.5

----------
system: dengue virus type 2; experiment: Antiviral activity against DENV-2 New Guinea C infected in human Huh-7 cells assessed as reduction in virus induced cytopathic effect preincubated with cells for 1 hr followed by viral infection and measured after 45 to 48 hrs by luciferase assay; format: functional, organism-based
The following molecules are shown together with reported pEC50 values.
Value format note: pEC50 is -log10 of concentration (mol/L); just state the number.

Field: example entries. Status: answers known.
>>> numeric_readout("O=C(Nc1ccccc1Cl)c1cnc2ccc(C3CCNCC3)cn12")
5.19
>>> numeric_readout("O=S1(=O)NCCCNc2nc(ncc2-c2ccc(Cl)c(Cl)c2)Nc2cccc1c2")
5.43
>>> numeric_readout("COc1cc(-c2cnc3nc2NCCCNS(=O)(=O)c2cccc(c2)N3)ccc1Br")
5.28

Hello, I am looking for reported pEC50 with dengue virus type 2 for "COc1c(F)ccc(-c2cnc3nc2NCCCNS(=O)(=O)c2cccc(c2)N3)c1F" . Could you help?
5.74

----------
biological target: Ephrin type-A receptor 2 (Homo sapiens, UniProt P29317)
Readout kind: deltaTm (K)
Give just the number in K; leave the unit off.

Reported deltaTm, compound "O=S1(=O)NCCCNc2nc(ncc2Br)Nc2cccc1c2" : ____
6.7

----------
target: Cyclin-G-associated kinase (Homo sapiens)
Readout kind: deltaTm (K)
Give just the number in K; leave the unit off.

>>> numeric_readout("O=S1(=O)NCCCNc2nc(ncc2Br)Nc2cccc1c2")
4.9

Reported deltaTm, compound "COC(=O)c1ccc(-c2cnc3nc2NCCCNS(=O)(=O)c2cccc(c2)N3)cc1OC" : ____
3.1

// same read-out, input: "COc1cc(-c2cnc3nc2NCCCNS(=O)(=O)c2cccc(c2)N3)cc(F)c1F"
4.1

// same read-out, input: "O=S1(=O)NCCCNc2nc(ncc2-c2cc(Cl)c(Cl)cc2F)Nc2cccc1c2"
6.5

// same read-out, input: "COc1ccc(-c2cnc3nc2NCCCNS(=O)(=O)c2cccc(c2)N3)cc1OC"
6.1

----------
biological target: Vascular endothelial growth factor receptor 1 (Homo sapiens, UniProt P17948); test: Induction of stabilization of recombinant FLT1 (unknown origin) assessed as change in melting temperature by differential scanning fluorimetry assay
Sequence (P17948 whole entry): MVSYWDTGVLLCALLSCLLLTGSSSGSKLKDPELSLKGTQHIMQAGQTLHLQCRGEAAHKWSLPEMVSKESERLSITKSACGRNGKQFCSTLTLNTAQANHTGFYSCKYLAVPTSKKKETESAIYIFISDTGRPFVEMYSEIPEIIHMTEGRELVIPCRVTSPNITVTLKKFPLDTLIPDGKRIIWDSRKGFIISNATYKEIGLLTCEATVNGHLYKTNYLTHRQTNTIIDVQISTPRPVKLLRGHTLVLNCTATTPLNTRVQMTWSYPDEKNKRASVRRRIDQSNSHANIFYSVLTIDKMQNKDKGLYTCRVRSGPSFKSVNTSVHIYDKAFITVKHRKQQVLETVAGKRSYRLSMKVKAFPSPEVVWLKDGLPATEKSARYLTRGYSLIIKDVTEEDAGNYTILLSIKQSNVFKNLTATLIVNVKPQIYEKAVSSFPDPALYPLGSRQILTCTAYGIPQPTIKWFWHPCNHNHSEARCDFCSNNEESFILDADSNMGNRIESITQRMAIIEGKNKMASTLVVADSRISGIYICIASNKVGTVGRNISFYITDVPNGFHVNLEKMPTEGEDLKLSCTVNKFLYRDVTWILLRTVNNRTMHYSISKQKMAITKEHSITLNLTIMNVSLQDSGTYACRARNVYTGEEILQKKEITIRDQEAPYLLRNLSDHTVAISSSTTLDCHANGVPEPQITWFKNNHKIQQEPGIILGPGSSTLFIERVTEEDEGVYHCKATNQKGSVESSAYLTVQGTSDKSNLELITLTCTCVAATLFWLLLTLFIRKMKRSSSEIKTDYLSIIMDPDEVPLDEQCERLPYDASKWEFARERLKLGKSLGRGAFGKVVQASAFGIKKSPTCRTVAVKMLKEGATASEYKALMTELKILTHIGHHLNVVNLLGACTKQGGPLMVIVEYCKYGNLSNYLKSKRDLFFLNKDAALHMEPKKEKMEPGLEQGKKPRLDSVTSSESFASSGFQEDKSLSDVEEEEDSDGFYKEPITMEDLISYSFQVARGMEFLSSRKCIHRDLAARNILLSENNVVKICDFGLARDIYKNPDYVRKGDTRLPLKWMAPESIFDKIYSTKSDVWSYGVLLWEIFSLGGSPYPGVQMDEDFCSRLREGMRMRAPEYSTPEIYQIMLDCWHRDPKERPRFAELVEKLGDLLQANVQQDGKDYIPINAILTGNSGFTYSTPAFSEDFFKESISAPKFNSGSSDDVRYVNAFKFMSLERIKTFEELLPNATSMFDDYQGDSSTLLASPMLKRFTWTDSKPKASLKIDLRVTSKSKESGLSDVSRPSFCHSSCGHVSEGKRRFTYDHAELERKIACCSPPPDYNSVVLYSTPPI
Readout kind: deltaTm (K)
Give just the number in K; leave the unit off.

>>> numeric_readout("CN[C@@H]1C[C@H]2O[C@@](C)([C@@H]1OC)n1c3ccccc3c3c4c(c5c6ccccc6n2c5c31)C(=O)NC4")
10.2
>>> numeric_readout("O=S1(=O)NCCCNc2nc(ncc2-c2ccc(F)c(C(F)(F)F)c2)Nc2cccc1c2")
1.8

Now examine the next entry.
Reported deltaTm, compound "O=S1(=O)NCCCNc2nc(ncc2-c2cc(Cl)c(Cl)cc2F)Nc2cccc1c2" : ____
5.4

----------
Reported deltaTm values, Cyclin-G-associated kinase (Homo sapiens) (UniProt O14976).

>>> result("Nc1cc(-c2cnc3nc2NCCCNS(=O)(=O)c2cccc(c2)N3)ccc1F")
"6 K"
>>> result("COc1c(F)ccc(-c2cnc3nc2NCCCNS(=O)(=O)c2cccc(c2)N3)c1F")
"6.8 K"

Now examine the next entry.
Reported deltaTm, compound "COc1cc(-c2cnc3nc2NCCCNS(=O)(=O)c2cccc(c2)N3)ccc1Cl" : ____
7.1 K

----------
Reported deltaTm values, Fibroblast growth factor receptor 2 (Homo sapiens).
Entry format: amount then unit.

Field: example entries. Status: answers known.
>>> result("COc1cc(-c2cnc3nc2NCCCNS(=O)(=O)c2cc(ccc2C)N3)ccc1F")
"3 K"
>>> result("COc1c(F)ccc(-c2cnc3nc2NCCCNS(=O)(=O)c2cccc(c2)N3)c1F")
"5.8 K"
>>> result("O=S1(=O)NCCCNc2nc(ncc2-c2cccc(Cl)c2F)Nc2cccc1c2")
"5.3 K"
>>> result("COCCOc1ccc2cc1S(=O)(=O)NCCCNc1nc(ncc1-c1ccc(F)c(OC)c1)N2")
"4.5 K"
>>> result("O=S1(=O)NCCCNc2nc(ncc2-c2ccc(F)c(Cl)c2)Nc2cccc1c2")
"5.5 K"
>>> result("COc1cc(-c2cnc3nc2NCCCNS(=O)(=O)c2cc(ccc2O)N3)ccc1F")
"3 K"

Hello, I am looking for reported deltaTm with Fibroblast growth factor receptor 2 (Homo sapiens) for "O=S1(=O)NCCCNc2nc(ncc2-c2ccc(F)c(O)c2)Nc2cccc1c2" . Could you help?
6.5 K

// same read-out, input: "O=S1(=O)NCCCNc2nc(ncc2-c2cc(Cl)c(F)cc2F)Nc2cccc1c2"
4.7 K

// same read-out, input: "COC(=O)c1cc(-c2cnc3nc2NCCCNS(=O)(=O)c2cccc(c2)N3)ccc1F"
3.1 K

// same read-out, input: "COc1cc(-c2cnc3nc2NCCCNS(=O)(=O)c2cc(ccc2-c2ccc(O)cc2)N3)ccc1F"
4 K

----------
biological target: Vascular endothelial growth factor receptor 1 (Homo sapiens, UniProt P17948); experiment: Induction of stabilization of recombinant FLT1 (unknown origin) assessed as change in melting temperature by differential scanning fluorimetry assay
Threshold check on deltaTm: strictly below 3 K is Satisfied; on or above 3 K is Not satisfied.

Here are 5 compounds together with their reported answers.
>>> discrete_label("COC(=O)c1cc(-c2cnc3nc2NCCCNS(=O)(=O)c2cccc(c2)N3)ccc1F")
"Not satisfied"
>>> discrete_label("COc1cc(-c2cnc3nc2NCCCNS(=O)(=O)c2cc(ccc2OCC(N)=O)N3)ccc1F")
"Satisfied"
>>> discrete_label("COC(=O)COc1ccc2cc1S(=O)(=O)NCCCNc1nc(ncc1-c1ccc(F)c(OC)c1)N2")
"Satisfied"
>>> discrete_label("COCCOc1ccc2cc1S(=O)(=O)NCCCNc1nc(ncc1-c1ccc(F)c(OC)c1)N2")
"Satisfied"
>>> discrete_label("CC(C)Oc1cc(-c2cnc3nc2NCCCNS(=O)(=O)c2cccc(c2)N3)ccc1F")
"Satisfied"

Find out if reported deltaTm for "O=S1(=O)NCCCNc2nc(ncc2-c2ccc(F)c(Cl)c2)Nc2cccc1c2" is less than 3 K
Not satisfied

// same read-out, input: "COc1cc(-c2cnc3nc2NCCCNS(=O)(=O)c2cc(ccc2Cl)N3)ccc1F"
Satisfied

// same read-out, input: "CSc1cc(-c2cnc3nc2NCCCNS(=O)(=O)c2cccc(c2)N3)ccc1F"
Not satisfied

// same read-out, input: "Cc1cc(Cl)c(Cl)cc1-c1cnc2nc1NCCCNS(=O)(=O)c1cccc(c1)N2"
Satisfied

// same read-out, input: "COc1cc(-c2cnc3nc2NCCCNS(=O)(=O)c2cccc(c2)N3)c(F)cc1F"
Not satisfied

// same read-out, input: "COc1ccc(-c2cnc3nc2NCCCNS(=O)(=O)c2cccc(c2)N3)cc1OC"
Not satisfied

// same read-out, input: "COc1cc(-c2cnc3nc2NCCCNS(=O)(=O)c2cccc(c2)N3)ccc1Br"
Satisfied

// same read-out, input: "COc1cc(-c2cnc3nc2NCCCNS(=O)(=O)c2cc(ccc2C)N3)ccc1F"
Satisfied
